The values you see were collected from patent US5281594A.

Target Under Test: D2 receptor (Rattus norvegicus, UniProt P61169)
Sequence (P61169 whole entry): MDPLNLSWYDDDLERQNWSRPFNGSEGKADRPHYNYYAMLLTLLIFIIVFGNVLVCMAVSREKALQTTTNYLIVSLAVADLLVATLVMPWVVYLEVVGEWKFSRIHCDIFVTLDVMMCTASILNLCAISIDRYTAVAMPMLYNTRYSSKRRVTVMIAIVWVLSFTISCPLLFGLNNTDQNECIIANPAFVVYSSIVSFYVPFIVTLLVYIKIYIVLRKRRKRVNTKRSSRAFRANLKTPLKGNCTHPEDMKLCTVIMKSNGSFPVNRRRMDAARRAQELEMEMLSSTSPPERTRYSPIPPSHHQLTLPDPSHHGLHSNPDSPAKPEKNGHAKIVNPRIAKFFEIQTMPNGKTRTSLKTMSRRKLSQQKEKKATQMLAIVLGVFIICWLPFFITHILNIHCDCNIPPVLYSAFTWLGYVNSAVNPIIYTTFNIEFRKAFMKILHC
Test Description: biochemical
Assay type: binding
Condition Description: read-out: Ki (dose for 50% occupation of the receptors)
Property Name: Ki (nM)

>>> obs_value("Cl.O=C1N(CCCN2CCN(c3ccccc3)CC2)CCN1c1ccccc1 [hydrochloride]")
323

----------
Target Under Test: D2 receptor (Rattus norvegicus)
Test Description: biochemical
Format: binding
Condition Description: 3H-raclopride; whole rat brain; non-specific binding with 1 uM thioridazine; i.a. = inactive at specified concentration; read-out: Ki (dose for 50% occupation of the receptors)
Property Name: Ki (nM)

>>> obs_value("CCN(CC)C(=O)N[C@H]1C[C@@H]2c3cccc4[nH]cc(c34)C[C@H]2N(C)C1")
0.95
>>> obs_value("COc1ccccc1N1CCN(CCCCN2CCN(c3ccccc3)C2=O)CC1")
2.6
>>> obs_value("COc1ccccc1N1CCN(CCCCN2CCN(c3cccc(Cl)c3)C2=O)CC1")
3.7

----------
Tested on: dopaminergic neurons in the substantia nigra (SNPC)
Test Description: Dopamine nerve impulse generation: depression of firing of substantia nigra dopamine neurons (agonist)
Assay type: in vivo, Sprague-Dawley rats
Condition Description: Rattus norvegicus, Neuron, iv; Table 3; read-out: Agonist Max.: maximal depression of firing
In this section, each of the compounds is paired with its reported Emax.
Property Name: Emax (%)

>>> obs_value("COc1ccccc1N1CCN(CCCCN2CCN(c3cccc(Cl)c3)C2=O)CC1")
54
>>> obs_value("COc1ccccc1N1CCN(CCCCN2CCN(c3ccccc3)C2=O)CC1")
36
>>> obs_value("CN1CCc2cccc3c2[C@H]1Cc1ccc(O)c(O)c1-3")
100
>>> obs_value("CCCN1CCCC(c2cccc(O)c2)C1 (single isomer, unassigned; (-)) [(-)-3-PPP]")
70
